# MEASUREMENT DESCRIPTION: Cytotoxicity against ICR mouse primary peritoneal macrophages assessed as cell viability at 20 uM after 24 hrs by MTT assay relative to control
# Type: cell-based, Peritoneal macrophage
# RECORDED CONDITIONS: read-out: Activity
Each entry below carries its reported viability at 24 h, 20 µM.

Worked cases, viability at 24 h, 20 µM given:
> print(dat)
                           structure.string         measured.endpoint  reported
1  COc1cc(-c2csc(NC(=O)CCN3CCN(Cc4cccc([N+](=O)[O-])c4)CC3)n2)ccc1O  viability at 24 h, 20 µM     > 80%
2  COc1ccc(-c2csc(NC(=O)CCN3CCN(Cc4cccc([N+](=O)[O-])c4)CC3)n2)cc1OC  viability at 24 h, 20 µM     > 80%

Summary for this compound, O=C(CCN1CCN(Cc2cccc([N+](=O)[O-])c2)CC1)Nc1nc(-c2ccccc2Br)cs1 : viability at 24 h, 20 µM is > 80%

Values from ChEMBL document CHEMBL4325844
